system: Saccharomyces cerevisiae; test: protein stability index of tFT-peptide fusion (C-terminal peptide) (PSI (0-1 scale)); higher = more stable (slower turnover); conditions: genetic background: doa10 deletion; temperature: 30 C
readout-type: protein stability index

>  <biosequence>
GGLVVYVWGRWS

>  <target-system>
Saccharomyces cerevisiae

>  <protein stability index>
0.356

$$$$
>  <biosequence>
GRSVGVTMFKNG

>  <target-system>
Saccharomyces cerevisiae;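 further: PSI is a weighted mean of sequencing reads over stability bins, variants kept only with over 10 reads, mCherry proximal and sfGFP distal, peptide attached via GGGS linker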

>  <protein stability index>
0.172

$$$$

"VCFAWWGARCVA" yielded protein stability index of 0.304

"RRGLIFFLCCPA" yielded protein stability index of 0.31

"FCVLLFYCFFFF" yielded protein stability index of 0.314

"CVEACVWYNAGL" yielded protein stability index of 0.658

"GFLVPSSPRCHQ" yielded protein stability index of 0.654

"FLQIIIFSRVLF" yielded protein stability index of 0.366

"SWFRRPFPPRLL" yielded protein stability index of 0.048

"DDESLVGRWRKV" yielded protein stability index of 0.25

"CTESVYIIRFML" yielded protein stability index of 0.222

"VRIGCSLLFFLP" yielded protein stability index of 0.478

"YRGFFIGKLMLV" yielded protein stability index of 0.112

"LPPPTPRSVLLN" yielded protein stability index of 0.296

"FVSGRFLFFFVL" yielded protein stability index of 0.162

"RGVPPPPWTPPP" yielded protein stability index of 0.653

"EGGLGDRLLGVG" yielded protein stability index of 0.516

"GFESTCSLLCVF" yielded protein stability index of 0.264
